Data provenance: ChEMBL document CHEMBL1133864

Property: pIC50; scope: individual compounds
# tgt: Human immunodeficiency virus type 1 reverse transcriptase (Human immunodeficiency virus 1)
# assay-summary: The compound was evaluated for inhibition of HIV-1 wild types […]-Lys recombinant reverse transcriptase
Interpret pIC50 as the negative base-10 log of the concentration measured in mol/L.

Cc1cn([C@@H]2O[C@H](CO[Si](C)(C)C(C)(C)C)[C@@H](O[Si](C)(C)C(C)(C)C)[C@H]2O)c(=O)n(CC(=O)O)c1=O : 3.68

Query Cc1cn([C@@H]2O[C@H](CO[Si](C)(C)C(C)(C)C)C3(OS(=O)(=O)C=C3N)[C@H]2O[Si](C)(C)C(C)(C)C)c(=O)[nH]c1=O (some centres undefined) on Human immunodeficiency virus type 1 reverse transcriptase (Human immunodeficiency virus 1); pIC50 returned: 5.44

Query Cc1cn(C2OC(CO[Si](C)(C)C(C)(C)C)CC2O[Si](C)(C)C(C)(C)C)c(=O)n(CC(=O)O)c1=O (centres undefined) on Human immunodeficiency virus type 1 reverse transcriptase (Human immunodeficiency virus 1); pIC50 returned: 4.47

Query Cc1cn([C@@H]2O[C@H](CO[Si](C)(C)C(C)(C)C)[C@@H](O)[C@H]2O[Si](C)(C)C(C)(C)C)c(=O)n(CC(=O)O)c1=O on Human immunodeficiency virus type 1 reverse transcriptase (Human immunodeficiency virus 1); pIC50 returned: 3.86
